attribute-measured: melting point

Example compounds with recorded melting point:
- compound: "Cc1ccc2nc(NC3=NCCN3)[nH]c2c1C"
  attribute-measured: "melting point"
  measurement: "199 to 204 °C"
- compound: "OCc1ccc2ccccc2c1OCc1ccccc1"
  attribute-measured: "melting point"
  measurement: "85 to 87 °C"
- compound: "CCC1C(=O)Nc2cccc3c2N1C(=O)C3c1ccccc1 (centres undefined)"
  attribute-measured: "melting point"
  measurement: "205 to 208 °C"
- compound: "Cc1cc(-n2ccnc2)c2cccc(OCc3c(Cl)ccc(S(=O)(=O)N4CCC[C@H]4C(=O)NCC4CCN(CCOCCO)CC4)c3Cl)c2n1"
  attribute-measured: "melting point"
  measurement: "96 °C"

(Q) Param item = CC(C)(C)OC(=O)Nc1ccc(C#Cc2cccc(C#Cc3ccc(NC(=O)OC(C)(C)C)cc3)c2C(=O)O)cc1 ; retrieve measured melting point.
(A) 118 °C

(Q) Consider next the compound O=C(CS(=O)c1ccccc1)Nc1c([N+](=O)[O-])cnn1-c1c(Cl)cc(C(F)(F)F)cc1Cl (centres undefined) in the same way.
(A) 108 to 110 °C

(Q) Consider next the compound O=C1CCCC(=O)N1c1cc(Cc2n[nH]c(=O)c3ccccc23)ccc1F in the same way.
(A) 259 to 263 °C

(Q) Consider next the compound CC(C)N(CCNC(=O)N1CCCC(S(=O)(=O)c2ccccc2)C1)C(C)C (centres undefined) in the same way.
(A) 82.5 to 84 °C

(Q) Consider next the compound N#Cc1cccc2c(-c3ccccc3)coc12 in the same way.
(A) 143 to 145 °C

----------
The entries below are paired with their reported melting point.

Example compounds with recorded melting point:
- compound: "O=[N+]([O-])c1ccc(Oc2ccccc2Oc2ccc([N+](=O)[O-])c(O)c2)cc1O"
  attribute-measured: "melting point"
  measurement: "178 to 180 °C"
- compound: "CC(C)(C)OC(=O)Nc1c(F)cccc1[N+](=O)[O-]"
  attribute-measured: "melting point"
  measurement: "100 to 101 °C"
- compound: "O=C(CC1CCCCC1)Nc1c(Cl)ccc2nc(N3CCC(NS(=O)(=O)C(F)(F)F)CC3)ccc12"
  attribute-measured: "melting point"
  measurement: "187 to 189 °C"

(Q) Param item = CC(=O)N(CCCC(=NNC(N)=S)c1ccccc1)C(C)C ; retrieve measured melting point.
(A) 141 to 147 °C

(Q) Consider next the compound CC(CO)NC(=O)C(F)(F)F (centres undefined) in the same way.
(A) 80 to 81 °C

(Q) Consider next the compound O=C(O)Cc1ccc(CNC(=O)C2Cc3ccccc3N2S(=O)(=O)c2ccc(-c3cccc(Cl)c3)cc2)cc1 (centres undefined) in the same way.
(A) 120 °C

----------
The entries below are paired with their reported melting point.

- molecule: "CN(C)C(=O)C1(c2ccccc2)CCNCC1"
  measurement: "95 °C"
- molecule: "CC(=O)S[C@H]1NC(=O)[C@H]1NC(=O)Cc1ccccc1"
  measurement: "110 to 111 °C"
- molecule: "CC(=O)NCC1=C(n2ccccc2=O)c2cc(C(F)(F)F)ccc2OC1(C)C"
  measurement: "174 °C"

(Q) Param item = N#C[C@@H]1C[C@H](F)CN1C(=O)CCl ; retrieve measured melting point.
(A) 97 to 100 °C

(Q) Consider next the molecule COC(=O)[C@@H]1O[C@@H](c2ccccc2)N(NS(=O)(=O)c2ccc([N+](=O)[O-])cc2)[C@H]1c1ccccc1 in the same way.
(A) 118 to 120 °C

(Q) Consider next the molecule O=C(O)c1ccc(-c2nn(Cc3ccccc3)c3ccccc23)cc1 in the same way.
(A) 205 to 207 °C

(Q) Consider next the molecule Cc1nc2c(N)nc3ccccc3c2n1CCCCS(C)=O (stereo not given) in the same way.
(A) 184 to 187 °C

(Q) Consider next the molecule CC(C)CCS(=O)(=O)CC[C@H](O)[C@@H](N)CC(C)C in the same way.
(A) 125 to 126 °C

(Q) Consider next the molecule COc1cc(N)c(Cl)cc1C(=O)N[C@H]1CCN(CC#N)C[C@H]1OC (relative stereo) in the same way.
(A) 130 °C

(Q) Consider next the molecule COc1cc(N2CCC(N3CCN(C)CC3)CC2)ccc1Nc1ncc2ccc(-c3ccc(Cl)nc3)n2n1 in the same way.
(A) 186 to 188 °C

(Q) Consider next the molecule CN(C)c1ccc(Nc2ncc(C(=O)O)c(=O)[nH]2)cc1 in the same way.
(A) 261 to 263 °C

(Q) Consider next the molecule BrCCCCCCCCCCCCCCCCCCCCBr in the same way.
(A) 62 °C

(Q) Consider next the molecule CCCC[C@H](NC(=O)[C@H](CC(C)C)NC(=O)c1ccc(OC)cc1)C(=O)CSCc1ccco1 in the same way.
(A) 124 °C

(Q) Consider next the molecule Cc1cccc(NC(=O)C2=C(O)c3ccccc3S(=O)(=O)N2C)c(=O)c1 in the same way.
(A) 276 to 280 °C

(Q) Consider next the molecule Cc1ccc(Nc2nc(Cl)nc(Cl)n2)cc1F in the same way.
(A) 130 °C

(Q) Consider next the molecule O=C1c2ccccc2C(O)N1CCSc1ccncc1 (stereo not given) in the same way.
(A) 112 °C

(Q) Consider next the molecule Cc1nc(N2CCCN(Cc3ccc(F)cc3)C2=O)sc1C(=O)NCc1cccnc1 in the same way.
(A) 48 to 50 °C

(Q) Consider next the molecule CCOC(=O)/C=C/C(=O)N1C[C@H](NC(=O)OCc2ccccc2)C1=O in the same way.
(A) 68 °C

(Q) Consider next the molecule O=C(O)CCCCc1nc2c(F)c(F)cc(F)c2s1 in the same way.
(A) 122 to 124 °C

(Q) Consider next the molecule CC(C)(Cc1ccccc1)C(O)CCN1C(=O)NC(=O)C1CCCCCCC(=O)O (stereo not given) in the same way.
(A) 115 °C

(Q) Consider next the molecule CCOC(=O)CO/N=C(\C(=O)Sc1nc2ccccc2s1)c1cc[nH]n1 in the same way.
(A) 112 to 114 °C

(Q) Consider next the molecule O=[N+]([O-])CS(=O)(=O)c1c[nH]c2ccccc12 in the same way.
(A) 181 to 182 °C

(Q) Consider next the molecule CCCCc1nnc(S(=O)Cc2ccc(OC)cc2)n1Cc1ccc(OC(C(=O)O)c2ccccc2)cc1 (stereo not given) in the same way.
(A) 74 to 75 °C

(Q) Consider next the molecule CC(=O)O[C@H]1CC[C@H]2[C@@H]3CCc4cc(O)ccc4[C@H]3[C@@H](CCCCCCCCCS(=O)(=O)CCCC(F)(F)C(F)(F)F)C[C@]12C in the same way.
(A) 130 °C

(Q) Consider next the molecule C(C#CSCc1ccccc1)#CSCc1ccccc1 in the same way.
(A) 38 to 39 °C

(Q) Consider next the molecule CCCc1c(OCCOc2cccc(C(=O)NCCCCc3cccnc3)c2)ccc(C(C)=O)c1O in the same way.
(A) 90 °C

(Q) Consider next the molecule CC(=O)Nc1ccc(C(C)=O)cn1 in the same way.
(A) 146 to 147 °C
